Tgt: human claudin 18.2 (CLDN18.2) (human)
Protocol Description: cell-based or functional assay
Experimental Readout: EC50, ADCC Reporter Bioassay (luciferase) (pM)
Expressed in pM, but write only the number.

q: Fill blank: measured EC50, ADCC Reporter Bioassay (luciferase) of the binder 4F11E2 HC N55Q-LC S32A (humanized, PTM de-risked, No. 2) (antibody, V domains shown) VH: EVQLVESGGGLVQPGGSLRLSCAASGFTFSTFGMHWVRQAPGKGLEWVSYITSGQSPIYFTDTVKGRFTISRDNAKNSLYLQMNSLRAEDTAVYYCARSSYYGNSMDYWGQGTLVTVSS VL: DIVMTQSPDSLAVSLGERATINCRSSQSLLNAGNRKNYLTWYQQKPGQPPKLLIYWASTRESGVPDRFSGSGSGTDFTLTISSLQAEDVAVYYCQNAYSYPFTFGGGTKLEIK is ____.
a: 414
